- Method summary: Thermostability (Tm, Tonset, Tagg) by Nanotemper DSF
- Format: physicochemical
- Parameters: key: temperatures in °C
- Experimental parameters: anti-Fel d1 VHH; single melting point; in °C (unit assumed)
Measured quantity: Tm
Give bare numbers.

{"columns": ["Molecule", "Tm"],
 "data": [
  ["SDAB22110-4-3-G08: anti-Fel d1 VHH clone, SEQ ID NO: 56 (protein) VHH: DVQLVESGGGLVQPGGSLRLSCAASGFTFSLYYMSWYRQVPGKERELVATITSGTHATTYADSVKGRFTISRDNAKNTVSLQMNSLKREDTGVYYCKRTNAGQDPWGQGTQVTVSS", 58.58]
]}

Lab note: next molecule to report on.
# molecule SDAB22110-1-1-C3: anti-Fel d1 VHH clone, SEQ ID NO: 49 (protein) VHH: AVQLVESGGGLVQPGGSLRLSCAASGFTFTNYAMRWYRQAPGKERELVAAIPTSGGYTYTADSVKGRFTISRDNAKNTVYLQMNSLKPEDTAVYYCYGLRTLSDYYWGQGTQVTVSS ; its Tm = 66.50
